Data credit: patent US20250243208A1

biological target: MRGPRX2 (Homo sapiens, UniProt Q96LB1); assay: MRGPRX2 β-Arrestin recruitment assay (PathHunter CHO-K1); type: cell-based; design: host or cells: PathHunter CHO-K1; details: PathHunter CHO-K1 cells, agonist Cortistatin 14 0.25 μM
Sequence (Q96LB1 whole entry): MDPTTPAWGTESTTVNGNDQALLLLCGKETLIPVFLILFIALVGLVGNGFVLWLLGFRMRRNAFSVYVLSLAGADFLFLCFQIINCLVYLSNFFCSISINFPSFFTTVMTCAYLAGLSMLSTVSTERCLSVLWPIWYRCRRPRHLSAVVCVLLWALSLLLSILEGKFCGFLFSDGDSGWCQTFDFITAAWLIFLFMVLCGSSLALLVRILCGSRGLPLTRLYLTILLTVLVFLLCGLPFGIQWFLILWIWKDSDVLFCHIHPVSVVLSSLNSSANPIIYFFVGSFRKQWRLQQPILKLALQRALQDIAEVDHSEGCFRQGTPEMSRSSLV

>  <Compound>
N#CC1(C(=O)N2CC3(C2)CN(C(CNc2cc(C(F)(F)F)nc4cc(C(F)(F)F)nn24)c2ccc(F)cc2)C3)CC1 (racemic) [Example 38]

>  <System name>
MRGPRX2 (Homo sapiens, UniProt Q96LB1)

>  <IC50>
0.1 to 100 nM

$$$$
>  <Compound>
CC(CNc1cc(C(F)(F)F)nc2cc(C(F)(F)F)nn12)(c1ccc(F)cc1)C1CCN(CC(N)=O)C1 (single isomer, unassigned) [Example 17]

>  <System name>
MRGPRX2 (Homo sapiens, UniProt Q96LB1)

>  <IC50>
0.1 to 100 nM

$$$$
>  <Compound>
OC1CCC12CN(C(CNc1cc(C(F)(F)F)nc3cc(C(F)(F)F)nn13)c1ccc(F)cc1)C2 (mixture of isomers) [Example 34]

>  <System name>
MRGPRX2 (Homo sapiens, UniProt Q96LB1)

>  <IC50>
0.1 to 100 nM

$$$$
